- Test system: A549
- test method notes: Cytotoxicity against human A549 cells assessed as cell death at 100 ug/ml by MTT assay
- Assay type: functional
metric: Activity
Remember to quote the unit after the number.

CCCCN1C(=O)[C@@]2(c3ccccc31)N(C)C[C@](C#N)(C(=O)c1c[nH]c3ccccc13)[C@]21C(=O)Nc2ccccc21
19.6%
CN1C[C@](C#N)(C(=O)c2c[nH]c3ccccc23)[C@]2(C(=O)Nc3ccccc32)[C@@]12C(=O)N(c1ccccc1)c1ccccc12
41.58%
CN1C[C@](C#N)(C(=O)c2c[nH]c3ccccc23)[C@]2(C(=O)Nc3ccccc32)[C@@]12C(=O)Nc1ccc(Cl)cc12
7.38%
CN1C(=O)[C@@]2(c3cc(I)ccc31)N(C)C[C@](C#N)(C(=O)c1c[nH]c3ccccc13)[C@]21C(=O)Nc2ccccc21
12.66%

We next turn to a different molecule, shown below.
Task: Requested read-out: Activity. Entry: CN1C[C@](C#N)(C(=O)c2c[nH]c3ccccc23)[C@]2(C(=O)Nc3ccccc32)[C@@]12C(=O)N(Cc1ccccc1)c1ccccc12
Output: 16.03%
